# STUDY TARGET: Gonadotropin-releasing hormone receptor (Homo sapiens, UniProt P30968)
# Sequence (P30968 whole entry): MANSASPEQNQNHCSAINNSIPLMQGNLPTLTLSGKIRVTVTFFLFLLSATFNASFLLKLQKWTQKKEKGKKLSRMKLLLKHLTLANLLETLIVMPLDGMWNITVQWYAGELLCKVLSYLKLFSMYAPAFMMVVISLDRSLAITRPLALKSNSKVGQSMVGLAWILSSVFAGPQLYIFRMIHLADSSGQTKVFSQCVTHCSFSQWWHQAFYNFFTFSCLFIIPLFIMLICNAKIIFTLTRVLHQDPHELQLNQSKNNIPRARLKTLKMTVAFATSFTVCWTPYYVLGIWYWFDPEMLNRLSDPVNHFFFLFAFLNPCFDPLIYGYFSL
OBSERVATION TYPE: Ki (nM)
Numeric only. Scale: nM

NC(Cn1c(=O)c(-c2ccccc2F)c2n(c1=O)C(c1ccccc1)CO2)c1ccccc1 (configuration not stated): 700

The recorded Ki for entry NC(Cn1c(=O)c(-c2ccccc2Cl)c2n(c1=O)C(c1ccccc1F)CS2)c1ccccc1 (configuration not stated) equals 93
